# Tested on: PC3
# Assay protocol: Cytostatic cell culture assay (GI50), SRB
# Type: cell-based
# Details: Homo sapiens, PC-3, 120 h; 5 days incubation
Note to self: GI50 under 600 nM means y, ties and anything higher get n.

# Molecule, Target or system, Class assignment
measured = [
    ("CCOc1nc(N)nc2c1ncn2CCOCP(=O)(O)O [Example 5]", "PC3", "n"),
    ("CCCCOC(=O)[C@@H]1CCCN1P(=O)(COCCn1cnc2c(OCCC)nc(N)nc21)N1CCC[C@H]1C(=O)OCCCC [Example 25]", "PC3", "y"),
    ("Nc1nc(OC2CC2)c2ncn(CCOCP(=O)(O)O)c2n1 [Example 8]", "PC3", "n"),
    ("Nc1nc(NC2CC2)c2ncn(CCOCP(=O)(O)O)c2n1 [Example 12]", "PC3", "n"),
    ("CCOC(=O)[C@H](C)NP(=O)(COCCn1cnc2c(OC3CCCC3)nc(N)nc21)N[C@@H](C)C(=O)OCC [Example 46]", "PC3", "y"),
    ("CCOC(=O)[C@H](C)NP(=O)(COCCn1cnc2c(OC3CCC3)nc(N)nc21)N[C@@H](C)C(=O)OCC [Example 45]", "PC3", "y"),
    ("CCCCOC(=O)[C@H](C)NP(=O)(COCCn1cnc2c(OCCCC)nc(N)nc21)N[C@@H](C)C(=O)OCCCC [Example 36]", "PC3", "y"),
]

----------
Below, each entry is listed alongside its reported GI50.
# Tested on: PC3
# Assay protocol: Cytostatic cell culture assay (GI50), SRB
# Assay type: cell-based
# Details: Homo sapiens, PC-3, 120 h; 5 days incubation
# Text: The assay is based on quantification of cell counts by a colorimetric detection of the cell associated proteins. The assay relies on the ability of sulforhodamine B (SRB) to bind to protein components of cells that have been fixed to tissue-culture plates by trichloroacetic acid (TCA). […] • 1. […] Measure the OD at 500 nm in a microplate reader • 13. […]

# Compound, GI50 [µM]
measured = [
    ("CCCOc1nc(N)nc2c1ncn2CCOCP(=O)(N[C@H](C)C(=O)OC)N[C@H](C)C(=O)OC", 5.4),
    ("Nc1nc(NC2CC2)c2ncn(CCOCP(=O)(N3CCC[C@H]3C(=O)OCc3ccccc3)N3CCC[C@H]3C(=O)OCc3ccccc3)c2n1", 0.214),
    ("CCCOc1nc(N)nc2c1ncn2CCOCP(=O)(Oc1ccccc1)N1CCC[C@H]1C(=O)OCc1ccccc1 (stereo partly drawn)", 1.25),
    ("Nc1nc(OC2CCCCC2)c2ncn(CCOCP(=O)(O)O)c2n1", 3.01),
    ("CCOC(=O)[C@@H]1CCCN1P(=O)(COCCn1cnc2c(NC3CC3)nc(N)nc21)N1CCC[C@H]1C(=O)OCC", 0.608),
    ("CCCOc1nc(N)nc2c1ncn2CCOCP(=O)(Oc1ccc(C#N)cc1)N1CCC[C@H]1C(=O)OCC (stereo partly drawn)", 0.002),
    ("CCCCOC(=O)[C@H](C)NP(=O)(COCCn1cnc2c(OCC)nc(N)nc21)N[C@@H](C)C(=O)OCCCC", 0.002),
    ("CCCCOc1nc(N)nc2c1ncn2CCOCP(=O)(O)O", 1.44),
    ("CCCCOc1nc(N)nc2c1ncn2CCOCP(=O)(N[C@@H](C)C(=O)OCC)N[C@@H](C)C(=O)OCC", 0.028),
    ("CCCCOC(=O)[C@H](C)NP(=O)(COCCn1cnc2c(OC3CCCC3)nc(N)nc21)N[C@@H](C)C(=O)OCCCC", 0.008),
    ("COc1nc(N)nc2c1ncn2CCOCP(=O)(N[C@@H](C)C(=O)OC(C)C)N[C@@H](C)C(=O)OC(C)C", 0.325),
    ("CCCCOC(=O)[C@H](C)NP(=O)(COCCn1cnc2c(OC(C)C)nc(N)nc21)N[C@@H](C)C(=O)OCCCC", 0.021),
    ("Nc1nc(OC2CCCC2)c2ncn(CCOCP(=O)(O)O)c2n1", 1.01),
    ("COCCOc1nc(N)nc2c1ncn2CCOCP(=O)(O)O", 3.76),
    ("CCCOc1nc(N)nc2c1ncn2CCOCP(=O)(N[C@@H](Cc1ccccc1)C(=O)OCC)Oc1ccccc1 (stereo partly drawn)", 0.059),
    ("CCCOc1nc(N)nc2c1ncn2CCOCP(=O)(Oc1ccccc1)N1CCC[C@H]1C(=O)OCC (stereo partly drawn)", 0.696),
    ("CCCOC(=O)[C@@H]1CCCN1P(=O)(COCCn1cnc2c(OCCC)nc(N)nc21)N1CCC[C@H]1C(=O)OCCC", 0.011),
    ("CCCCOC(=O)[C@H](C)NP(=O)(COCCn1cnc2c(OCCOC)nc(N)nc21)N[C@@H](C)C(=O)OCCCC", 0.003),
    ("CCCOc1nc(N)nc2c1ncn2CCOCP(=O)(N1CCC[C@H]1C(=O)OCc1ccccc1)N1CCC[C@H]1C(=O)OCc1ccccc1", 0.111),
    ("CCCCOC(=O)[C@H](C)NP(=O)(COCCn1cnc2c(OC3CC3)nc(N)nc21)N[C@@H](C)C(=O)OCCCC", 0.032),
    ("Nc1nc(OC2CCC2)c2ncn(CCOCP(=O)(O)O)c2n1", 0.955),
    ("CCOC(=O)[C@H](C)NP(=O)(COCCn1cnc2c(OC3CCCCC3)nc(N)nc21)N[C@@H](C)C(=O)OCC", 0.141),
    ("CCCOc1nc(N)nc2c1ncn2CCOCP(=O)(N1CCC[C@H]1C(=O)OC(C)C)N1CCC[C@H]1C(=O)OC(C)C", 0.634),
    ("CCCOc1nc(N)nc2c1ncn2CCOCP(=O)(N[C@@H](C)C(=O)OC(C)C)Oc1ccccc1 (stereo partly drawn)", 0.472),
    ("CCCOc1nc(N)nc2c1ncn2CCOCP(=O)(N1CCC[C@H]1C(=O)OCC)N1CCC[C@H]1C(=O)OCC", 0.026),
    ("CCOC(=O)[C@H](C)NP(=O)(COCCn1cnc2c(OC3CC3)nc(N)nc21)N[C@@H](C)C(=O)OCC", 0.237),
    ("COC(=O)[C@@H](C)NP(=O)(COCCn1cnc2c(OC)nc(N)nc21)N[C@H](C)C(=O)OC", 8),
    ("CCCOc1nc(N)nc2c1ncn2CCOCP(=O)(N[C@@H](C)C(=O)OC(C)C)N[C@@H](C)C(=O)OC(C)C", 0.591),
    ("CCCOc1nc(N)nc2c1ncn2CCOCP(=O)(Oc1ccc(Cl)cc1)N1CCC[C@H]1C(=O)OCC (stereo partly drawn)", 0.044),
    ("CCOC(=O)[C@H](C)NP(=O)(COCCn1cnc2c(OC)nc(N)nc21)N[C@@H](C)C(=O)OCC", 0.381),
]

----------
Below, each entry is listed alongside its reported GI50.
# System: PC3
# Assay protocol: Cytostatic cell culture assay (GI50), SRB
# Format: cell-based
# Details: Homo sapiens, PC-3, 120 h; 5 days incubation

# Compound, GI50, µM
rows = [
    ("CC(C)Oc1nc(N)nc2c1ncn2CCOCP(=O)(O)O", 1.38),
    ("CCCCCCOC(=O)[C@@H]1CCCN1P(=O)(COCCn1cnc2c(OCCC)nc(N)nc21)N1CCC[C@H]1C(=O)OCCCCCC", 0.081),
    ("CCOC(=O)[C@H](C)NP(=O)(COCCn1cnc2c(OCCOC)nc(N)nc21)N[C@@H](C)C(=O)OCC", 0.372),
    ("CCCCOC(=O)[C@H](Cc1ccccc1)NP(=O)(COCCn1cnc2c(OC)nc(N)nc21)N[C@@H](Cc1ccccc1)C(=O)OCCCC", 0.016),
    ("CCCCOC(=O)[C@H](Cc1ccccc1)NP(=O)(COCCn1cnc2c(OCCC)nc(N)nc21)N[C@@H](Cc1ccccc1)C(=O)OCCCC", 0.006),
    ("CCOC(=O)[C@@H]1CCCN1P(=O)(COCCn1cnc2c(OC3CCCCC3)nc(N)nc21)N1CCC[C@H]1C(=O)OCC", 0.109),
    ("CCCOc1nc(N)nc2c1ncn2CCOCP(=O)(N[C@@H](Cc1ccccc1)C(=O)OCC)N[C@@H](Cc1ccccc1)C(=O)OCC", 0.026),
    ("CCCOc1nc(N)nc2c1ncn2CCOCP(=O)(O)O", 1.1),
    ("COc1nc(N)nc2c1ncn2CCOCP(=O)(O)O", 3.7),
    ("CCCOc1nc(N)nc2c1ncn2CCOCP(=O)(OCOC(=O)OC(C)C)OCOC(=O)OC(C)C", 0.04),
    ("CCOC(=O)[C@H](C)NP(=O)(COCCn1cnc2c(OC(C)C)nc(N)nc21)N[C@@H](C)C(=O)OCC", 0.19),
    ("CCOC(=O)[C@H](Cc1ccccc1)NP(=O)(COCCn1cnc2c(OC)nc(N)nc21)N[C@@H](Cc1ccccc1)C(=O)OCC", 0.103),
    ("CCOC(=O)[C@@H]1CCCC1P(=O)(COCCn1cnc2c(OC3CC3)nc(N)nc21)N1CCC[C@H]1C(=O)OCC (stereo partly drawn)", 0.183),
    ("CCCOc1nc(N)nc2c1ncn2CCOCP(=O)(N[C@@H](C)C(=O)OCC)N[C@@H](C)C(=O)OCC", 0.275),
    ("CCCCOC(=O)[C@H](C)NP(=O)(COCCn1cnc2c(OC)nc(N)nc21)N[C@@H](C)C(=O)OCCCC", 0.013),
]
